FYI, the data here is from PubChem BioAssay (NCI).

Test system: SNB-75 CNS
measurement notes: NCI-60 one-dose screen, 48 h (100 = growth as untreated, 0 = no growth, -100 = all killed)
recorded conditions: 10 µM
This is part of a sample that, as a whole, favours compounds with a hit. Of some 83,000 tested, about 20% had one in any assay.
Assign growth to each entry below.
The answer is to be given in %; state only the numeric part.

Query: Quick one: growth of `COc1ccc2oc(=O)cc(C(c3ccc[nH]3)c3ccc[nH]3)c2c1` ?
Result: 29.6

Query: Bench note: what growth did `COc1cc2nc(Sc3sc(N)nc3C)n(-c3ccc(Oc4ccccc4)cc3)c(=O)c2cc1OC` show?
Result: 86.7

Query: I have this compound here, `COc1ccc(Cn2cc3c(c2-c2cc(OC)c(OC)c(OC)c2)CCc2cnoc2-3)cc1N` , and I need its recorded growth.
Result: 50.5

Query: # growth lookup, item Cn1c(=O)c2[nH]c(C(O)c3ccc(Cl)cc3)nc2n(C)c1=O (stereo not drawn)
Result: 80.2

Query: Need growth, item `CCOC(=O)c1cc2c(n1Cc1ccccc1)-c1oncc1CC2`
Result: 89.2

Query: What value of measured growth is listed for `CS(=O)(=O)Nc1ccc(OCc2nnc(-c3ccc(Cl)cc3)o2)c(F)c1` ?
Result: 82.7

Query: // returns reported growth for input `CCOC(=O)Cn1nnc(-c2ccc(OCc3ccccc3F)cc2)n1`
Result: 57.8

Query: Request the reported growth associated with `O=C(NNC(=O)c1ccncc1)Nc1ccc([N+](=O)[O-])cc1`
Result: 111

Query: Requested read-out: growth. Entry: `CCc1ccc(-c2nnc(COc3ccc(-c4nc5cc(Cl)c(Cl)cc5[nH]4)cc3OC)o2)cc1`
Result: 48.4

Query: Suppose we examine the compound `FC(F)(F)c1ccc(-c2cnc(Cl)nc2NCc2cc(C(F)(F)F)cc(C(F)(F)F)c2)cc1` ; what growth value has been reported?
Result: 27.2

Query: growth lookup needed for `CCCCC(CC#N)(CCC)CCC` , thanks.
Result: 80.6

Query: Given the compound COc1cc(C2C=C(c3ccc(Cl)cc3)N=C3SC(C)=CN32)cc(OC)c1OC (stereo not drawn) , what is its reported growth?
Result: 81.8

Query: Reported growth for `Oc1[nH]c2ccccc2c1/C=c1/cc2c(c(-c3ccc(C(F)(F)F)cc3)n1)=Nc1ccccc1-2` : what is it?
Result: 63.4

Query: // returns reported growth for input `Cc1nc2sccn2c1-c1csc(Nc2cccc(Cl)c2C)n1`
Result: 77.5

Query: Quick one: growth for `O=C1/C(=C/c2ccc(O)cc2)Oc2ccc(Cl)cc21` ?
Result: 82.8

Query: # get_value(readout='growth', item= `O=[N+]([O-])c1ccc2c(c1)Cc1cc(I)ccc1-2` )
Result: 106

Query: Consider the compound `CC(=O)Nc1nc(C)c(C(=O)N/N=C/c2cccn2C)s1` and give its measured growth.
Result: 109

Query: Record request: growth value, item CN(C)c1ccc2c(c1)OC(N)=C(C#N)C2c1ccc2c(c1)CCO2 (stereo not drawn)
Result: 40.8

Query: // lookup growth for COC(=O)CCCCCCCCC(C)c1ccc(C(C)=O)cc1 (stereo not drawn)
Result: 122

Query: Quick check: growth of `C#CCNCCN1C(=O)c2ccc3c4c(ccc(c24)C1=O)C(=O)N(CCNCC#C)C3=O` ?
Result: 75.4

Query: # input compound: `Cc1cc(Cl)ccc1Nc1nc(C(F)(F)F)ccc1C(=O)N/N=C/c1ccccc1Cl` ; wanted: its growth
Result: 37.9

Query: I am curious: what growth value has been reported for `COc1cc(Nc2ccnc(N3CCN(c4ccnc5cc(Cl)ccc45)CC3)n2)cc(OC)c1` ?
Result: -13.9

Query: Could you tell me which growth is on file for `Oc1ccc(/C=N\Nc2ccccn2)c(O)c1` ?
Result: 9.86

Query: What value of growth has been recorded for this entry: CC(Oc1ccc(Cl)cc1)c1ccccc1 (stereo not drawn)
Result: 97.3

Query: Given the entry `COc1cc(C)c2sc3ccccc3c(=O)c2c1NCCN(C)C` , report its measured growth.
Result: 50.5

Query: // lookup growth for `COc1ccc(N2CCN(c3nc(-c4ccccc4)c(C#N)c(=O)[nH]3)CC2)cc1`
Result: 73.2

Query: Would you kindly share the measured growth for `N#Cc1c2c([nH]c(=O)c1C(N)=O)CCCCC2` ?
Result: 104

Query: What growth value was documented for this compound, `O=c1oc2cc(OS(=O)(=O)C3CC3)ccc2c2c1CCCCCC2` ?
Result: 98.7
